# Method Notes: Pharmacokinetics study after single oral dose of HP
# Assay type: in vivo, C57BL/6 mice
# Condition Summary: male, C57BL/6, mouse, plasma; 1.5 h after single oral dose of 50 mg/kg HP, mice, mean ± SD, n = 5; read-out: Blood drug concentration
Reported concentration at 1.5 h values for the following compounds.
Put down the number, then write its unit next to it.

Input line: Given the compound O=c1ccc2ccc(O)cc2o1 , what is its reported concentration at 1.5 h?
Output line: 2060 nM

Input line: Given the compound O=c1ccc2cc(O)c(O)cc2o1 , what is its reported concentration at 1.5 h?
Output line: 2250 nM

---

# Method Notes: Pharmacokinetics study after single oral dose of HP
# Type: in vivo, C57BL/6 mice
# Condition Summary: male, C57BL/6, mouse, in vivo; plasma, single oral dose of 50 mg/kg HP, mice, n = 5
Property Name: Cmax (µM)
Quick note: give the figure in µM, leave out the unit.

Input line: Given the compound O=c1ccc2ccc(O[C@@H]3O[C@H](CO)[C@@H](O)[C@H](O)[C@H]3O)cc2o1 , what is its reported Cmax?
Output line: 14.2
